Recorded shrunken log2 fold change for the following sequences
Test system: Escherichia coli TOP10;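 note: peptides expressed intracellularly from a pBAD plasmid library in pooled LB shake-flask culture, induced with 0.3% L-arabinose, DNA abundance read by NGS, three biological replicates, DESeq2 with apeglm shrinkage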
assay_text: shrunken log2 fold change of peptide-encoding DNA abundance (4.5 h post-induction vs induction); higher = less antimicrobial activity (less host growth inhibition)
settings: time post-induction: 4.5 h; library: site-saturation at positions 5, 18, 19, 20

entry_sequence | tgt | shrunken log2 fold change
RRIRLRPPRLPRPRPRPNVAPRP | Escherichia coli TOP10 | 0.0405
RRIRVRPPRLPRPRPRPHVWPRP | Escherichia coli TOP10 | -0.145
RRIRIRPPRLPRPRPRPVVMPRP | Escherichia coli TOP10 | -0.0043
RRIRDRPPRLPRPRPRPHEYPRP | Escherichia coli TOP10 | -0.01
